- experimental system: NDM-1 (Klebsiella pneumoniae)
- Sequence (C7C422 29-270, looked up, species assumed): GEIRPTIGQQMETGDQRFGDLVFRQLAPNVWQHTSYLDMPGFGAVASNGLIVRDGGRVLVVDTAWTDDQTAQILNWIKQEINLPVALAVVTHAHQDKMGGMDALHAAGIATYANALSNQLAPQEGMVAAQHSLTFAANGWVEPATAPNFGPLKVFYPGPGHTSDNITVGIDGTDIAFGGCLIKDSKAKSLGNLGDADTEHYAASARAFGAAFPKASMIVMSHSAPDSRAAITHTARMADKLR
- experiment notes: Enzymatic assay for determination of inhibition constants, reporter substrate method, purified NDM-1;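 further: purified enzyme activity followed as absorbance change from reporter substrate hydrolysis on a UV-Vis spectrophotometer or plate reader, 50 mM HEPES pH 7.5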
- Format: biochemical
- measurement parameters: at 100 μM (maximal tested concentration)
% inhibition NDM-1 of 80 % at 100 μM or higher: MET. Under 80 % at 100 μM: NOT MET.

Below, 4 compounds whose answers are already recorded.
compound="O=C1OC(Cn2c(-c3ccccc3)n[nH]c2=S)c2ccccc21 (centres unmarked)" class_label="NOT MET"
compound=Cn1cccc1-c1n[nH]c(=S)n1CCSCc1ccccc1 class_label="NOT MET"
compound="O=C(O)C(CCCn1c(-c2ccccc2)n[nH]c1=S)N(Cc1c[nH]cn1)Cc1c[nH]cn1 (centres unmarked)" class_label=MET
compound=O=[N+]([O-])c1ccc(O)c(CSCCn2c(-c3ccccc3)n[nH]c2=S)c1 class_label="NOT MET"

Dear colleague, could you confirm whether "O=C(O)CCCCCn1c(-c2ccccc2)n[nH]c1=S" has % inhibition NDM-1 at or above 80 % at 100 μM?
NOT MET
